Tested on: HCT-116
Test Details: Reduction in KLF5 protein expression in human HCT116 cells at 10 uM by gel electrophoresis and autoradiography
Assay type: functional, cell-based
Activity calls are given as the source filed them. The rule behind the calls is not given here.

Compound	Activity
CN(C(=O)CNC(=O)/C=C/c1cccc([N+](=O)[O-])c1)C1CCS(=O)(=O)C1 (centres undefined)	inactive
CN(C(=O)CNC(=O)/C=C/c1cccc(Cl)c1)C1CCS(=O)(=O)C1 (centres undefined)	inactive
CN(C(=O)COC(=O)/C=C/c1cccc([N+](=O)[O-])c1)C1CCS(=O)(=O)C1 (centres undefined)	inactive
